All figures here come from patent US20240409663A1.

# System under test: T1, human GPC3 on cells (human, UniProt P51654 25-554)
# T1 construct: whole, on cells; over-expressed on CHOK1 cells or endogenous on HEPG2, Hep3B and Huh-7 hepatocellular carcinoma cells; the cell line is named under assay; also called GPC3-CHOK1 cells; human GPC3 over-expressed CHOK1 cells
# Assay protocol: FACS, Huh-7 cells
Assign EC50 to each entry below.
Your answer is read as µg/mL, so omit the unit and give the number.

Notebook: Hu 52H5D3B8-8 (antibody, V domains shown, humanized 52H5D3B8; also called 52H5D3B8 VH3 + VL1) VH: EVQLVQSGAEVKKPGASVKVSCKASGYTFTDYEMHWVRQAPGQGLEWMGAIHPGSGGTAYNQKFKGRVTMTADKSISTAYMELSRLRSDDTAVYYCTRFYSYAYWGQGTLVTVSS VL: DVVMTQTPLSLSVTPGQPASISCRSSQSLVHSNGNTYLQWYLQKPGQSPQLLIYKVSNRFSGVPDRFSGSGSGTDFTLKISRVEAEDVGVYFCSQSIHVPYTFGGGTKVEIK , EC50 read as 0.0233

For Hu 52H5D3B8-5 (antibody, V domains shown, humanized 52H5D3B8; also called 52H5D3B8 VH2 + VL0) VH: EVQLVQSGAEVKKPGASVKVSCKASGYTFTDYEMHWVRQAPGQGLEWMGAIHPGSGGTAYNQKFKGRVTMTADTSISTAYMELSRLRSDDTAVYYCTRFYSYAYWGQGTLVTVSS VL: DVVMTQTPLSLSVTPGQPASISCRSSQSLVHSNGNTYLQWYLQKPGQSPQLLIYKVSNRFSGVPDRFSGSGSGTDFTLKISRVEAEDVGVYYCSQSIHVPYTFGGGTKVEIK the binder record lists EC50 as 0.0402
